# Tested on: HIV-1 BaL strain (subtype B, R5)
# experiment: HIV-1 infection assay (p24 ELISA), laboratory-adapted R5 virus
# Type: cell-based
# run_conditions: Human immunodeficiency virus 1, BAL, CEMx174 5.25M7
measure: EC50 (nM)

INSERT INTO measurements (compound, target_entity, measure, experimental_value) VALUES
  ('CC(=O)N1CCC(C(=O)N(CCCN2CCC(Cc3ccc(C(N)=O)cc3)CC2)c2ccc(C)c(Cl)c2)CC1', 'HIV-1 BaL strain (subtype B, R5)', 'EC50', 23.8);

---

# target_entity: CCR5 (Homo sapiens, UniProt P51681)
# Sequence (P51681 whole entry): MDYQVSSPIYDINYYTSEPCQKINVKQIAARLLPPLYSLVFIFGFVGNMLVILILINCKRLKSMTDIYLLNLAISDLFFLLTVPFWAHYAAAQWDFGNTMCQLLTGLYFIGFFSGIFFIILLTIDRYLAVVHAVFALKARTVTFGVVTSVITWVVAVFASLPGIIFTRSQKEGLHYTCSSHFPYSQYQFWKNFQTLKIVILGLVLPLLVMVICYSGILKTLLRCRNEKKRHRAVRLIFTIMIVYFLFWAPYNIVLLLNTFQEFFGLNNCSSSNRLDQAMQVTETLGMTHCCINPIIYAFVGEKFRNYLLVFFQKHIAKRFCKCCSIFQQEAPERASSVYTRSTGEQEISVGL
# experiment: RANTES-induced calcium mobilization assay in CCR5-expressing HEK293 cells
# run_conditions: RANTES 34.6 nM, HEK293 cells expressing Gα15 and CCR5, Fluo-4
pIC50: −log10 of the molar value.
measure: pIC50

INSERT INTO results (compound, measure, experimental_value) VALUES
  ('CC(=O)N1CCC(C(=O)N(CCCN2CCC(Cc3ccc(C(N)=O)cc3)CC2)c2ccc(C)c(Cl)c2)CC1', 'pIC50', 9.13);
